# tgt: RecA (Escherichia coli, UniProt P0A7G6 1-353)
# Sequence (P0A7G6 whole entry): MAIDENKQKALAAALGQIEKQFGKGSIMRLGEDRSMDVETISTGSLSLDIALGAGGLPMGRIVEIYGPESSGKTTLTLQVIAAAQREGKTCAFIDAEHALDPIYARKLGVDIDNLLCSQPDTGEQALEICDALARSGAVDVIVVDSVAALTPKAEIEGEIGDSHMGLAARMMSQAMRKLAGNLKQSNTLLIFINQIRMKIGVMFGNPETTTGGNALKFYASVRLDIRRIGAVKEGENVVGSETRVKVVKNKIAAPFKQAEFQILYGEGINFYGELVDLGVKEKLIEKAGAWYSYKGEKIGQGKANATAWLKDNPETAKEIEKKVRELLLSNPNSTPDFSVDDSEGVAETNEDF
# methodSummary: double filter binding
assayMetric: pKd
pKd (log units): -log10 of the concentration in mol/L.

Consider the binder TGGTGGTGGTGGTGGTGGTGGTGGTGGTGGTGGTGGTGGTGGTGGTGG (ssDNA) [TGG-repeating 48mer] and give its measured pKd.
7.04
